System: IL-1β
Assay: Inhibition of IL-1β secretion from human PBMC stimulated with LPS
Format: cell-based
Settings: 25 μM, 1 μg/ml LPS, 24 h
Outcome label depends on Inhibition (%) at 25 μM IL-1β release relative to 80%: at/above gives class 1, below gives class 0.

These solved cases illustrate the format of a correct answer.
{"columns": ["Chemical Smiles", "Class Assignment"],
 "data": [
  ["CCOC(=O)c1cccnc1C(=O)OB(c1ccc(C)c(Cl)c1)c1ccc(C)c(Cl)c1", "class 0"],
  ["Cc1ccc(B(OC(=O)c2ncccc2OCCN2CCOCC2)c2ccc(C)c(Cl)c2)cc1Cl", "class 0"],
  ["O=C(OB(c1ccc(Cl)cc1F)c1c(Cl)ccc(Br)c1F)c1ncccc1O", "class 1"]
]}

Query :: Test whether the compound "Cc1ccc(B(OC(=O)c2ncccc2O)c2ccc(O)cc2)cc1Cl" records Inhibition (%) at 25 μM IL-1β release of 80% or higher.
Result :: class 0

* * *

System: IL-1β
Assay: Inhibition of IL-1β secretion from human PBMC stimulated with LPS
Assay type: cell-based
Settings: 25 μM, 1 μg/ml LPS, 24 h

{"columns": ["Chemical Smiles", "Inhibition (%) at 25 μM IL-1β release"],
 "data": [
  ["Cc1ccc(B(OC(=O)c2ncccc2O)c2ccc(C)c(Cl)c2)cc1Cl", "(99%)"],
  ["Cc1ccc(B(OC(=O)c2ccc(C(=O)O)cn2)c2ccc(C)c(Cl)c2)cc1Cl", "80%"]
]}
